# System: human nerve extract
# MEASUREMENT_PROTOCOL: Phage display selection on plates coated with human nerve extract (Plated Nerve2), NextGen sequence counts
# Type: binding
# CONDITION: unique sequence count (relative enrichment); Plated Nerve2 only
hey, just use Fulfilled if measured Count is less than 50, otherwise Not fulfilled

Worked cases, answers included:
Exam item: Does 556 (QLNSEEPYYHFKNY) [compound 556] have Count strictly under 50?
Marked response: Fulfilled

Exam item: Does 504 (QVQWDGASSIVQKT) [compound 504] have Count strictly under 50?
Marked response: Fulfilled

Exam item: Does 472 (EFRSEQPYYFVNKY) [compound 472] have Count strictly under 50?
Marked response: Not fulfilled

Exam item: Does 511 (QLPWHEAFFGVNNG) [compound 511] have Count strictly under 50?
Marked response: Fulfilled

Exam item: Does 481 (QNPWDEPSYVVKNV) [compound 481] have Count strictly under 50?
Marked response: Not fulfilled

Further cases:
Exam item: Does 520 (HVSWEEPRYIVKDS) [compound 520] have Count strictly under 50?
Marked response: Fulfilled

Exam item: Does 528 (QISWEDPDYGVRKS) [compound 528] have Count strictly under 50?
Marked response: Fulfilled

Exam item: Does 453 (QIPWTQPQYDVTPP) [compound 453] have Count strictly under 50?
Marked response: Not fulfilled

Exam item: Does 524 (QFPWHKQFYVGKSS) [compound 524] have Count strictly under 50?
Marked response: Fulfilled

Exam item: Does 485 (YVPYEEQKYVVTKS) [compound 485] have Count strictly under 50?
Marked response: Not fulfilled

Exam item: Does 515 (SISSKDPYALVKYS) [compound 515] have Count strictly under 50?
Marked response: Fulfilled

Exam item: Does 455 (QFPLAEPYYHLTES) [compound 455] have Count strictly under 50?
Marked response: Not fulfilled

Exam item: Does 464 (ELPYEEPGTFVEKA) [compound 464] have Count strictly under 50?
Marked response: Not fulfilled

Exam item: Does 539 (HLPCKKSFYACKKH) [compound 539] have Count strictly under 50?
Marked response: Fulfilled

Exam item: Does 450 (QFAWSQSYAYSSTT) [compound 450] have Count strictly under 50?
Marked response: Not fulfilled

Exam item: Does 531 (LVSPTGPIYVMNKS) [compound 531] have Count strictly under 50?
Marked response: Fulfilled

Exam item: Does 526 (HLPSEKPWYDLDGS) [compound 526] have Count strictly under 50?
Marked response: Fulfilled

Exam item: Does 469 (QVPRPASSYIGKTS) [compound 469] have Count strictly under 50?
Marked response: Not fulfilled

====

# Test system: human nerve extract
# MEASUREMENT_PROTOCOL: Phage display selection on plates coated with human nerve extract (Plated Nerve2), NextGen sequence counts
# Format: binding
# CONDITION: unique sequence count (relative enrichment); Plated Nerve2 only
Catalogue of Count readings, one per entry.
In your answer, state the number alone without any accompanying words.

Consider 538 (SVAGQQHYYVSTKP) [compound 538] . Its measured Count is 38

Consider 458 (NVTGAEYYYRMNNY) [compound 458] . Its measured Count is 67

Consider 501 (QLAGGDPYVLPKLS) [compound 501] . Its measured Count is 47

Consider 451 (QGQWDKPYDAVQNS) [compound 451] . Its measured Count is 88

Consider 486 (HSQGQTTEYVGKQS) [compound 486] . Its measured Count is 52

Consider 506 (HVPWEGPEYIVTQS) [compound 506] . Its measured Count is 45

Further cases:
Consider 480 (QMPSGAPYDATLNS) [compound 480] . Its measured Count is 53

Consider 519 (HVLGEQPYSVVKTS) [compound 519] . Its measured Count is 41

Consider 460 (HDASEGAYYVERNS) [compound 460] . Its measured Count is 65
